Sourced from patent EP4806514A2

Target: T1, hCDH17-his (full length extracellular domain of human CDH17, Q23-M787, his tag at the C-terminal) (human, UniProt Q12864 23-787)
T1 construct: Limits of the construct (UniProt Q12864, Q23-M787, C-terminal his tag); also called human CDH17-his protein; human CDH17 protein
T1 sequence: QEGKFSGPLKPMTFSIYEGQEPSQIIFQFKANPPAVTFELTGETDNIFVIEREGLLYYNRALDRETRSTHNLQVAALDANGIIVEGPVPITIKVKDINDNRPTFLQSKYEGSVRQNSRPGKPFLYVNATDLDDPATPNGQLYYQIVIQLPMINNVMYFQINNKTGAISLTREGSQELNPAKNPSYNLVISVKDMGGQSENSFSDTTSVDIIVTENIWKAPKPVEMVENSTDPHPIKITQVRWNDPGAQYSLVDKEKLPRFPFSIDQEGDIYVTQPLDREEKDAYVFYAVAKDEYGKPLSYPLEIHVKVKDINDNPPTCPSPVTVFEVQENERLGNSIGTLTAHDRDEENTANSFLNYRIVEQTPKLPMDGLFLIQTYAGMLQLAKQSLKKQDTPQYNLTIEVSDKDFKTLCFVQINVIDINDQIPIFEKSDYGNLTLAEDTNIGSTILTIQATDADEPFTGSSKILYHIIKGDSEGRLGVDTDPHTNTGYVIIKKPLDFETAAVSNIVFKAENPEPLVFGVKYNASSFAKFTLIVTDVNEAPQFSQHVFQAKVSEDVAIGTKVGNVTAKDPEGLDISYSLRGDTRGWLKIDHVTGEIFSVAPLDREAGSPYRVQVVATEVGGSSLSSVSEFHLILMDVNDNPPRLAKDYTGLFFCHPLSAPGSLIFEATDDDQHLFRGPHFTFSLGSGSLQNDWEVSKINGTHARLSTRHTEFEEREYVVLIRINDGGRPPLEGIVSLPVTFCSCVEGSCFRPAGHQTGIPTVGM
Test: SPR (Biacore 8K), antibody captured on Protein A chip, hCDH17-his injected
Assay Metric: binding result

1. 29H8D3-z18 (antibody, V domains shown, Humanized, human IgG1 constant region) VH: QVQLVQSGAEVKKPGASVKVSCKASGYTFTDHTIHWVRQAPGQGLEWIGYIYPRDGYTKYNEKFKDRATMTTDTSTSTAYMELRSLRSDDTAVYYCARFYYGYWYFDVWGQGTTVTVSS VL: DIVMTQSPLSLPVTPGEPASISCRSSKSLLRSNGNTYLYWFLQKPGQSPQVLIYRMSNLASGVPDRFSGSGSGTAFTLKISRVEAEDVGVYYCMQHLEYPFTFGQGTKLEIK    binds
2. 29H8D3-z17 (antibody, V domains shown, Humanized, human IgG1 constant region) VH: QVQLVQSGAEVKKPGASVKVSCKASGYTFTDHTIHWVRQAPGQGLEWMGYIYPRDGYTKYNEKFKDRVTMTTDTSTSTAYMELRSLRSDDTAVYYCARFYYGYWYFDVWGQGTTVTVSS VL: DIVMTQSPLSLPVTPGEPASISCRSSKSLLRSNGNTYLYWFLQKPGQSPQVLIYRMSNLASGVPDRFSGSGSGTAFTLKISRVEAEDVGVYYCMQHLEYPFTFGQGTKLEIK    binds
3. 155B11C6-z7 (antibody, V domains shown, Humanized, human IgG1 constant region; also called 155B11C6 HU-VH1-2 / HU-VL1-2) VH: QVQLVQSGAEVKKPGASVKVSCKASGYTFTSYTMHWVRQAPGQGLEWIGYIDPKSDYNYYNQKFKDRATLTRDTSISTAYMELSRLRSDDTAVYYCARGFFKGYFDVWGQGTTVTVSS VL: EIVLTQSPGTLSLSPGERATLSCSVSSSISSSNLHWYQQKPGQAPRPWIYGTSNLASGVPDRFSGSGSGTDYTLTISRLEPEDFAVYYCQQWTSYPFTFGQGTKLEIK    binds
